# System: TGFβ signal
# method description: TGFβ signal inhibitory activity, (SBE)4-Luc reporter in A549 cells (Test Examples 1A and 1B)
# Assay type: cell-based, human
# experimental context: Homo sapiens, A549; test compound 10 µM; Reference Examples, Table 1B; read-out: TGFβ inhibition rate, %
readout label: inhibition at 10 µM (%)
One number for each entry, in %.

Please review the entries below; each comes with its answer.
COc1cc2nccc(Oc3c(Br)cc(Br)cc3C(=O)Nc3ccc(Br)cc3)c2cc1OC    96
CCCOC(=O)c1ccccc1Oc1ccnc2cc(OC)c(OC)cc12    97
COC(=O)c1cc2ccccc2cc1Oc1ccnc2cc(OC)c(OC)cc12    100
COc1cc(Oc2ccnc3cc(OC)c(OC)cc23)c(C(C)=O)cc1OC    91
COc1cc2nccc(Oc3cc(C)c(Cl)cc3C(=O)c3ccccc3)c2cc1OC    100
COc1cc2c(Oc3ccc(C)cc3C(=O)c3ccccc3)ccnc2cc1OCCN1CCNCC1    100
COc1cc2nccc(Oc3c(OC)cccc3C(C)=O)c2cc1OC    61
COc1cc2c(Oc3ccc(C)cc3C(=O)c3ccccc3)ccnc2cc1OCCN1CCC(CO)CC1    100

For each entry beneath this line, provide reported inhibition at 10 µM.
1. CCOC(=O)c1c(C)cccc1Oc1ccnc2cc(OC)c(OC)cc12
2. COc1cc2c(Oc3ccc(C)cc3C(=O)c3ccccc3)ccnc2cc1OCCCN1CCC(N2CCCC2)CC1
3. COc1cc2nccc(Oc3ccc(C)cc3C(=O)C3CCCCC3)c2cc1OC
4. COc1cc2c(Oc3ccc(C)cc3C(=O)c3ccccc3)ccnc2cc1OCCN1CCN(C)CC1
5. COc1cc2nccc(Oc3ccc(C)cc3C(=O)c3ccco3)c2cc1OC

1. 82
2. 100
3. 99
4. 100
5. 98

Lab note: each compound below needs its inhibition at 10 µM filled in.
1. COc1cc2nccc(Oc3ccccc3Cc3ccccc3)c2cc1OC
2. COc1ccc(Oc2ccnc3cc(OC)c(OC)cc23)c(C=O)c1
3. COc1cc2nccc(Oc3ccc(C)cc3CN3CCCCC3)c2cc1OC
4. CCOC(=O)c1cc(C)ccc1Oc1ccnc2cc(OC)c(OC)cc12
5. COc1ccc(Oc2ncnc3cc(OC)c(OC)cc23)c(C(C)=O)c1

1. 53
2. 73
3. 72
4. 99
5. 54

---

# Tested on: TGFβ signal
# method description: TGFβ signal inhibitory activity, (SBE)4-Luc reporter in A549 cells (Test Examples 1A and 1B)
# Type: cell-based, human
# experimental context: Homo sapiens, A549; test compound 3 µM; TGFβ-1 2 ng/ml, 4 hr; Table 1A; read-out: TGFβ inhibition rate, %
Give inhibition at 3 µM for every item shown.
Give bare numbers, in %.

Reference set, count: 6
Cc1cc(Oc2ccnc3ccc(-c4cccnc4)cc23)c(-c2ccccn2)nc1C [Compound 6]    100
COc1cc2c(Oc3cc(C)c(C)nc3-c3ccccn3)ccnc2cc1C(N)=O [Compound 145]    78
Cc1cc(Oc2ccnc3ccc(-c4ccncc4)cc23)c(-c2ccccn2)nc1C [Compound 7]    100
Cc1ccc(Oc2ccnc3ccc(OCCCN4CCCCC4)cc23)c(-c2ncccn2)n1 [Compound 212]    55
Cc1cc(Oc2ccnc3ccc(-c4ccsc4)cc23)c(-c2ccccn2)nc1C [Compound 163]    92
Cc1cc(Oc2ccnc3cc(OCc4ccccc4)ccc23)c(-c2ccccn2)nc1C [Compound 137]    88

Need inhibition at 3 µM for each of these compounds.
1. Fc1cc2nccc(Oc3cc4cccnc4nc3-c3ccccc3)c2c(F)c1F [Compound 102]
2. Cc1cc(Oc2ccnc3cc(-c4ccccc4)ccc23)c(-c2ccccn2)nc1C [Compound 17]
3. COc1cc2nccc(Oc3cc4cccnc4nc3-c3ccccc3)c2cc1O [Compound 124]

45
98
99

Provide each entry's inhibition at 3 µM from the list below.
1. COc1cc2nccc(Oc3cc4ccccc4nc3-c3ncccn3)c2cc1OC [Compound 92]
2. COc1cc2nccc(Oc3ccc(F)nc3-c3ccccn3)c2cc1OC [Compound 115]
3. CCc1ccc(Oc2ccnc3ccc(OCCOC(=O)C(C)(C)CC)cc23)c(-c2ncccn2)n1 [Compound 224]
4. Cc1cc(Oc2ccnc3ccc(C(F)(F)F)cc23)c(-c2ccccn2)nc1C [Compound 3]
5. c1ccc(-c2nc3ncccc3cc2Oc2ccnc3ccsc23)cc1 [Compound 71]
6. COc1cc2nccc(Oc3cc4cccnc4nc3-c3ccncc3)c2cc1OC [Compound 89]
7. Cc1cc(Oc2ccnc3cc(-c4ccccc4)sc23)c(-c2ccccn2)nc1C [Compound 29]

1. 98
2. 100
3. 95
4. 99
5. 93
6. 36
7. 100

Lab note: each compound below needs its inhibition at 3 µM filled in.
1. COc1ccc2nccc(Oc3cc(C)c(C)nc3-c3ccccn3)c2c1 [Compound 4]
2. Clc1cc2nccc(Oc3cc4cccnc4nc3-c3ccccc3)c2cc1Cl [Compound 58]

1: 100; 2: 83
